# Experimental target: Melatonin receptor type 1B (Homo sapiens)
# Sequence (P49286 whole entry): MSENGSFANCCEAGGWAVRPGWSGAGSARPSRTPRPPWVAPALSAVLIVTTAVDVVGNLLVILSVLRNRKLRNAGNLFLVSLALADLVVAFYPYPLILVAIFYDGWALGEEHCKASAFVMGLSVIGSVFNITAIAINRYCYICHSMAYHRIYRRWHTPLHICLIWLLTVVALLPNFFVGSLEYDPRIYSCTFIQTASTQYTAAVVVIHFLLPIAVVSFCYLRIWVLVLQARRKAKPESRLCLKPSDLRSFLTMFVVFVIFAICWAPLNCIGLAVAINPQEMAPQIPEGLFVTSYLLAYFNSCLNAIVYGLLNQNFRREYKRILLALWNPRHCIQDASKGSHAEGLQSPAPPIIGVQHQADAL
# Measurement protocol: Intrinsic activity at human MT2 receptor expressed in CHO cell membranes after 1 hr by [35S]GTPgammaS binding assay
Observation type: EC50

For orientation, consider the following solved cases.
{"Smiles str": "COc1ccc2ccc3oc(CNC(=O)CF)cc3c2c1", "Observation type": "EC50", "Result value": "1.1 nM"}
{"Smiles str": "COc1ccc2ccc3oc(CNC(C)=O)cc3c2c1", "Observation type": "EC50", "Result value": "0.98 nM"}
{"Smiles str": "COc1ccc2ccc3occ(CNC(C)=O)c3c2c1", "Observation type": "EC50", "Result value": "1.4 nM"}
{"Smiles str": "COc1ccc2ccc3occ(CNC(=O)C4CC4)c3c2c1", "Observation type": "EC50", "Result value": "8.8 nM"}
{"Smiles str": "COc1ccc2ccc3occ(CNC(=O)C(C)C)c3c2c1", "Observation type": "EC50", "Result value": "8.8 nM"}
{"Smiles str": "COc1ccc2ccc3oc(CCNC(=O)C4CC4)cc3c2c1", "Observation type": "EC50", "Result value": "5.8 nM"}

In the following, a different compound is considered.
[in] // Input: COc1ccc2ccc3occ(CCNC(C)=O)c3c2c1 . Output its EC50 only.
[out] 0.7 nM

---

Listing of entries alongside the reported pKi.
# Experimental target: 5-hydroxytryptamine receptor 2C (Homo sapiens, UniProt P28335)
# Sequence (P28335 whole entry): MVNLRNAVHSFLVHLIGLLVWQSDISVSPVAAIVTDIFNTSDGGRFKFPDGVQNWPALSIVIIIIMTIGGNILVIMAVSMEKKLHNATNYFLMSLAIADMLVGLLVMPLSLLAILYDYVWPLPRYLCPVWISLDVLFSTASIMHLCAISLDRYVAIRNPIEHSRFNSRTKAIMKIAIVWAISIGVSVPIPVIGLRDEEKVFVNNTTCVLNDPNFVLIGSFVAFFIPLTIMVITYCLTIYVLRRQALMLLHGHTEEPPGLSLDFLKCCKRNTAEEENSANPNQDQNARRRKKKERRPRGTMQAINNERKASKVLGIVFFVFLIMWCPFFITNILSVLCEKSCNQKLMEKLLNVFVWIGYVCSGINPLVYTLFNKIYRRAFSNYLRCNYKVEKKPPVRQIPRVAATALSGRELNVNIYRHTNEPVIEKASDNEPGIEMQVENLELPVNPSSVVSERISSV
pKi: −log10 of the molar value.

For orientation, consider the following solved cases.
{"Smiles str": "COc1ccc2ccc3oc(CNC(C)=O)cc3c2c1", "pKi": "< 5.00"}
{"Smiles str": "COc1ccc2ccc3occ(CCNC(=O)C4CC4)c3c2c1", "pKi": "< 6.00"}
{"Smiles str": "COc1ccc2ccc3occ(CNC(C)=O)c3c2c1", "pKi": "< 5.00"}
{"Smiles str": "CCNC(=O)NCCc1coc2ccc3ccc(OC)cc3c12", "pKi": "< 6.00"}

In the following, a different molecule is considered.
[in] Write down measured pKi (5-hydroxytryptamine receptor 2C (Homo sapiens, UniProt P28335)) for this molecule. COc1ccc2ccc3oc(CCNC(C)=O)cc3c2c1
[out] < 5.00

---

# Experimental target: Melatonin receptor type 1A (Homo sapiens)
# Measurement protocol: Intrinsic activity at human MT1 receptor expressed in CHO cell membranes after 1 hr by [35S]GTPgammaS binding assay
Output class 1 for records whose EC50 is lower than 5 nM, class 0 for records at or above 5 nM.

Record excerpt, results attached:
{"Smiles str": "COc1ccc2ccc3oc(CNC(=O)CF)cc3c2c1", "Label": "class 0"}
{"Smiles str": "CCNC(=O)NCCc1coc2ccc3ccc(OC)cc3c12", "Label": "class 0"}
{"Smiles str": "COc1ccc2ccc3occ(CNC(=O)C4CC4)c3c2c1", "Label": "class 1"}
{"Smiles str": "COc1ccc2ccc3occ(CCNC(C)=O)c3c2c1", "Label": "class 1"}
{"Smiles str": "COc1ccc2ccc3occ(CCNC(=O)C4CC4)c3c2c1", "Label": "class 0"}
{"Smiles str": "COc1ccc2ccc3oc(CCNC(C)=O)cc3c2c1", "Label": "class 0"}

Please examine the following record next.
[in] Answer whether the molecule COc1ccc2ccc3occ(CNC(C)=O)c3c2c1 has EC50 strictly less than 5 nM
[out] class 1

---

Target or system Melatonin receptor type 1A (Homo sapiens, UniProt P48039); recorded quantity pKi.
Recall that pKi is obtained by taking minus log10 of the concentration measured in molar.

{"Smiles str": "COc1ccc2ccc3occ(CNC(C)=O)c3c2c1", "Result value": 8.34}

[in] Write down measured pKi (Melatonin receptor type 1A (Homo sapiens, UniProt P48039)) for this compound. COc1ccc2ccc3oc(CNC(=O)CF)cc3c2c1
[out] 8.24

[in] Write down measured pKi (Melatonin receptor type 1A (Homo sapiens, UniProt P48039)) for this compound. COc1ccc2ccc3oc(CCNC(=O)C4CC4)cc3c2c1
[out] 7.14

---

# Experimental target: Melatonin receptor type 1A (Homo sapiens, UniProt P48039)
# Sequence (P48039 whole entry): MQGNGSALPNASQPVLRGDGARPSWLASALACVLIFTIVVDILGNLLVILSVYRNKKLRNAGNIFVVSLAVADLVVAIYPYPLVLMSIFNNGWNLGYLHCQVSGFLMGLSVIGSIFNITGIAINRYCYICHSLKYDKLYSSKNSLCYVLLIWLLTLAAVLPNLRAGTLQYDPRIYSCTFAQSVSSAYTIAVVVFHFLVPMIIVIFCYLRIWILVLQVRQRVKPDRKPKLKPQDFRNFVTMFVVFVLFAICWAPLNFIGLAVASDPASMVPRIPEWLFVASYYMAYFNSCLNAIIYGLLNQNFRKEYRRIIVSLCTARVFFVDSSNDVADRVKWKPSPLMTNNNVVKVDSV
# Measurement protocol: Displacement of 2-[125I]iodomelatonin from human MT1 receptor expressed in CHO cell membranes after 120 mins
Output Y for records whose Ki is lower than 20 nM, N for records at or above 20 nM.

[in] Answer whether the compound COc1ccc2ccc3oc(CNC(C)=O)cc3c2c1 has Ki strictly less than 20 nM
[out] Y

[in] Answer whether the compound CCNC(=O)NCCc1cc2c(ccc3ccc(OC)cc32)o1 has Ki strictly less than 20 nM
[out] N

[in] Answer whether the compound CNC(=S)NCc1cc2c(ccc3ccc(OC)cc32)o1 has Ki strictly less than 20 nM
[out] N

[in] Answer whether the compound CCNC(=O)NCCc1coc2ccc3ccc(OC)cc3c12 has Ki strictly less than 20 nM
[out] N

[in] Answer whether the compound CCNC(=S)NCc1cc2c(ccc3ccc(OC)cc32)o1 has Ki strictly less than 20 nM
[out] N

---

Target or system Melatonin receptor type 1A (Homo sapiens); recorded quantity pKi.
Recall that pKi is obtained by taking minus log10 of the concentration measured in molar.

For orientation, consider the following solved cases.
{"Smiles str": "COc1ccc2ccc3oc(CCNC(C)=O)cc3c2c1", "Observation type": "pKi", "Result value": 8.00}
{"Smiles str": "COc1ccc2ccc3occ(CCNC(=O)C4CC4)c3c2c1", "Observation type": "pKi", "Result value": 6.63}
{"Smiles str": "COc1ccc2ccc3occ(CNC(=O)C(C)C)c3c2c1", "Observation type": "pKi", "Result value": 6.80}
{"Smiles str": "COc1ccc2ccc3occ(CNC(=O)CF)c3c2c1", "Observation type": "pKi", "Result value": 8.00}
{"Smiles str": "COc1ccc2ccc3oc(CNC(=O)C4CC4)cc3c2c1", "Observation type": "pKi", "Result value": 8.72}
{"Smiles str": "CCNC(=O)NCc1cc2c(ccc3ccc(OC)cc32)o1", "Observation type": "pKi", "Result value": 7.77}

In the following, a different compound is considered.
[in] Write down measured pKi (Melatonin receptor type 1A (Homo sapiens)) for this compound. COc1ccc2ccc3occ(CNC(=O)C4CC4)c3c2c1
[out] 7.70
